assay: Solubility of the compound in water; type: physicochemical; conditions: buffer
Outcome measure: solubility

O=C(NCCS(=O)(=O)O)c1cc(O)c2c(c1)C(=O)c1cc(O)c(CNCCS(=O)(=O)O)c(O)c1C2=O :: Soluble
O=C(NCCS(=O)(=O)O)c1cc(OS(=O)(=O)O)c2c(c1)C(=O)c1cc(O)c(Br)c(O)c1C2=O :: Soluble
O=C(NCCS(=O)(=O)O)c1cc(OS(=O)(=O)O)c2c(c1)C(=O)c1cc(O)c(-c3c(O)c(Br)c(O)c4c3C(=O)c3cc(C(=O)NCCS(=O)(=O)O)cc(OS(=O)(=O)O)c3C4=O)c(O)c1C2=O :: Soluble
